# Measured Target: MHV HR2 peptide (MHV)
# Assay Name: peptide ELISA
Experimental Endpoint: EC50 (µg/mL)
Hi! Could you send only the number? It should be in µg/mL, unit omitted.

Binder | EC50, µg/mL
hr2.017 (antibody, V domains shown) VH: EVQLVESGGGLVQPGGSLRLSCAVSGFAFSSSWMHWIRQAPGRGLVWVSRINRDGSTTDYADSVKGRFTISRDNAKATLYLQMNSLRAEDTAVYYCATMGFDYWGQGALVTVSS VL: DIVMTQSPDSLAVSLGERATINCKSSQNVLYSSNNKNHLSWYQQKPGQPPKLLIYWASTRKSGVPDRFSGSGSGTDFTLTINSLQAEDVAVYYCQQYFSTPNTFGQGTKLEIK | 0.02
hr2.021 (antibody, V domains shown) VH: QVQLVQSGAEVKKPGASVKVSCKASEAIFSGSYLHWVRQAPGQGLEWMGIITPSGDKTFYAQRFQGRLTMTRDTSTNTLHMHLSGLNSEDTAMYYCARQADKGGWDYWGQGTLVTVSS VL: EIVLTQSPGTLSLSPGERATLSCRASQSVTSNYVAWYQQKPGQAPRLLIYGASTRATGIPDRFSGGGSGTDFTLTITRLEPEDFAVYYCQQYGSSPPTFTFGPGTKVDIK | 0.0333

Task item: Specify reported EC50 for the binder shown: hr2.024 (antibody, V domains shown) VH: QVQLVQSGAEVKKPGASVKVSCKASEDIFTDSYLHWVRQAPGQGLEWMGIITPSGDKTFYAQQFQGRLTMTRDPSTNTLYMFLSGLRSDDTAMYFCARQAEKGGWDYWGHGTLVTVSS VL: EIVLTQSPGTLSLSPGQRATLSCRSSQTITSNYLAWYQQRPGQAPRLLIYGASIRATGIPDRFSGSGSGTDFTLTISRLEPEDFAVYYCQQYGSSPPTFIFGPGTKVDIK
Reply: 0.0259
